Assignment: determine reported pKi for the given molecules.
test-target: human NEP (Homo sapiens, UniProt P08473)
Construct: 1182-ZN
Sequence (P08473 whole entry): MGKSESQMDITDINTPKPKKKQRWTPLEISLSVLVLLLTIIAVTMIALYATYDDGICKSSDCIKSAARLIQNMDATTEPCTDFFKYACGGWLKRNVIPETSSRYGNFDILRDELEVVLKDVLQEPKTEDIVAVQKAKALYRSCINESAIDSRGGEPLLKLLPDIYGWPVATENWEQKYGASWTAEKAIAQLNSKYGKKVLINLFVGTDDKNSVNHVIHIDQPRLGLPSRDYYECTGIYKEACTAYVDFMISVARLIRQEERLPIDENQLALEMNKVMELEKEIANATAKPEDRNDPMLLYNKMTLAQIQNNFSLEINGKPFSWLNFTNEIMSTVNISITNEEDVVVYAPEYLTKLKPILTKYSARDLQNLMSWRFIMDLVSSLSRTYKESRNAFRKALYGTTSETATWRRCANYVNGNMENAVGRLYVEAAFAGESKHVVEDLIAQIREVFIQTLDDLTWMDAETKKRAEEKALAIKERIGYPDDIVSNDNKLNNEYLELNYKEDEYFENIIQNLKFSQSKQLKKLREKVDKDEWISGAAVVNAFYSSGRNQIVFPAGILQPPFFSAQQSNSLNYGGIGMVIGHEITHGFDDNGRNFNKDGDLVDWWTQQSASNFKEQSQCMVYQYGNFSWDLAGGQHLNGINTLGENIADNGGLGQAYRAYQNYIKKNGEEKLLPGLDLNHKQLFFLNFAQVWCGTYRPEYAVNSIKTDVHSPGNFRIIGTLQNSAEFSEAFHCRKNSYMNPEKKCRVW
measurement-protocol: In vitro enzyme inhibition assay at human NEP (Assay 1)
study-conditions: recombinant enzyme, fluorogenic peptide substrate, 37° C.
pKi: −log10 of the molar value.

Worked cases, pKi given:
O=C(NN(Cc1ccc(-c2ccccc2)cc1)C[C@@H](O)C(=O)O)c1cc(C(=O)N2CCOCC2)n[nH]1 [Example 2-15]
8.00 to 8.90
O=C(NN(Cc1ccc(-c2ccccc2)cc1)C[C@@H](O)C(=O)O)c1cc(C(=O)N2CC[C@@H](O)C2)n[nH]1 [Example 2-11]
8.00 to 8.90

Consider the record given below.
The molecule listed as O=C(NN(Cc1ccc(-c2cccc(Cl)c2)cc1)C[C@@H](O)C(=O)O)c1cc(C(=O)N2CC(F)C2)n[nH]1 [Example 4-18] has a reported pKi of ≥ 9.00

Source of measurements: patent US9873696B2
